Assay: Configurational stability of compound assessed as half life using C-8 column by stopped flow bidimensional recycling HPLC
Format: physicochemical
Settings: C-8 column (stationary phase)
Observation Type: half-life (min)
Numeric answer only, unit min assumed.

Query (compound): CC1NS(=O)(=O)c2cc(Cl)cc3c2N1C[C@@H]3C (mixture of isomers) ; field requested: half-life
10

====

Experiment: Configurational stability of compound assessed as half life using IAM column by stopped flow bidimensional recycling HPLC
Assay type: physicochemical
Conditions: IAM column (stationary phase)
Observation Type: half-life (min)
Numeric answer only, unit min assumed.

Query (compound): CC1NS(=O)(=O)c2cc(Cl)cc3c2N1C[C@@H]3C (mixture of isomers) ; field requested: half-life
10
